# TARGET_SYSTEM: Human M4 (Homo sapiens, UniProt P08173)
# Construct: expressed in transfected cells
# Sequence (P08173 whole entry): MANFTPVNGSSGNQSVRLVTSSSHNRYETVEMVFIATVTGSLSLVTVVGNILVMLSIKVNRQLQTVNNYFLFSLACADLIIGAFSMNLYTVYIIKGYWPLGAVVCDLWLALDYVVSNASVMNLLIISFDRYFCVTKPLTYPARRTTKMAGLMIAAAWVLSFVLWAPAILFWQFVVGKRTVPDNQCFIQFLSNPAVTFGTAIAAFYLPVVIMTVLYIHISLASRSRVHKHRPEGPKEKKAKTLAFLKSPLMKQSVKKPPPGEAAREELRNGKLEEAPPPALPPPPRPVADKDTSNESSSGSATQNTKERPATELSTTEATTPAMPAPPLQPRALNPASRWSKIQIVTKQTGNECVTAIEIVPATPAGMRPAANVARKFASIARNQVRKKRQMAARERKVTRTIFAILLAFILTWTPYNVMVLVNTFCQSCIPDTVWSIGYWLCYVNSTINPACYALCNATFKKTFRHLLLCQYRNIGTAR
# MEASUREMENT_NOTES: mAChR M4 cell-based functional assay (calcium flux, potentiation of EC20 acetylcholine response), hM4-Gqi5 CHO-K1 cells
# ASSAY_CONTEXT: Table 3; potentiation of EC20 acetylcholine response, calcium flux, CHO-K1 cells; read-out: Human M4 EC50
OBSERVED_PROPERTY: EC50

Entry under test: `Cc1c(N2CCc3ncc(-c4ccc(N5CCCC5)nc4)cc3C2)nn2cnnc2c1C` . Its EC50 was 401 nM

Entry under test: `Cc1c(N2CCc3ncc(-c4ccc(N(C)C)nc4)cc3C2)nn2cnnc2c1C` . Its EC50 was 284 nM

Entry under test: `COc1ccc(-c2cnc3c(c2)CN(c2nn4cnnc4cc2C)CC3)cn1` . Its EC50 was 227 nM
